details: Ebola virus entry reporter assay, ratio channel
Activity calls are given as the source filed them. Calls follow the shape of the full dose curve.
Valid outcomes are listed here; reply with one: 1 = active, 0 = inactive

QUERY: Lab log entry: C[C@]12CC[C@@H]3c4ccc(O)cc4C[C@@H](CCCCCCCCCS(=O)CCCC(F)(F)C(F)(F)F)[C@H]3[C@@H]1CC[C@@H]2O (some centres not stated) — outcome as called in the assay?
RESULT: 0

* * *

details: Ebola virus entry reporter assay, ratio channel
Activity calls are given as the source filed them. Calls come from the whole dose curve.
Valid outcomes are listed here; reply with one: true (1) (active), false (0) (inactive)

Previously resolved entries follow.
molecule	group
NCCCC(O)(P(=O)(O)O)P(=O)(O)O	false (0)
Cc1nnc(C(C)C)n1C1C[C@H]2CC[C@@H](C1)N2CC[C@H](NC(=O)C1CCC(F)(F)CC1)c1ccccc1 (stereo partly specified)	false (0)
CC[C@H]1OC(=O)[C@H](C)[C@@H](O[C@H]2C[C@@](C)(OC)[C@@H](O)[C@H](C)O2)[C@H](C)[C@@H](O[C@@H]2O[C@H](C)C[C@H](N(C)C)[C@@H]2O)[C@](C)(O)C[C@@H](C)CN(C)[C@H](C)[C@@H](O)[C@]1(C)O	true (1)

QUERY: Lab log entry: CN1[C@@H]2CC[C@H]1CC(OC(c1ccccc1)c1ccccc1)C2 (stereo partly specified) — outcome as called in the assay?
RESULT: true (1)

QUERY: Lab log entry: CCCCc1oc2ccc(NS(C)(=O)=O)cc2c1C(=O)c1ccc(OCCCN(CCCC)CCCC)cc1 — outcome as called in the assay?
RESULT: true (1)

QUERY: Lab log entry: CN(C)CCCN1c2ccccc2CCc2ccc(Cl)cc21 — outcome as called in the assay?
RESULT: true (1)

* * *

details: Ebola virus entry reporter assay, ratio channel
Calls of active or inactive are those of the source. Calls come from the whole dose curve.
Valid outcomes are listed here; reply with one: 1.0 for active, 0.0 for inactive

compound	group
CC[C@]1(O)C[C@H]2CN(CCc3c([nH]c4ccccc34)[C@@](C(=O)OC)(c3cc4c(cc3OC)N(C=O)[C@H]3[C@@](O)(C(=O)OC)[C@H](OC(C)=O)[C@]5(CC)C=CCN6CC[C@]43[C@@H]65)C2)C1	1.0
COC(=O)Nc1nc2ccc(C(=O)c3ccccc3)cc2[nH]1	1.0

QUERY: Lab log entry: CO[C@H]1C[C@@H]2CC[C@@H](C)[C@@](O)(O2)C(=O)C(=O)N2CCCC[C@@H]2C(=O)O[C@H]([C@H](C)C[C@@H]2CC[C@H](OCCO)[C@H](OC)C2)CC(=O)[C@H](C)C=C(C)[C@@H](O)[C@@H](OC)C(=O)[C@H](C)C[C@H](C)C=CC=CC=C1C — outcome as called in the assay?
RESULT: 0.0

QUERY: Lab log entry: CN(C)CCOc1ccc(/C(=C(/CCCl)c2ccccc2)c2ccccc2)cc1 — outcome as called in the assay?
RESULT: 1.0

QUERY: Lab log entry: CN1CCN(CCCN2c3ccccc3Sc3ccc(C(F)(F)F)cc32)CC1 — outcome as called in the assay?
RESULT: 1.0

* * *

details: Ebola virus entry reporter assay, ratio channel
Calls of active or inactive are those of the source. Calls follow the shape of the full dose curve.
Valid outcomes are listed here; reply with one: YES = active, NO = inactive

Previously resolved entries follow.
molecule	group
CCCSc1ccc2nc(NC(=O)OC)[nH]c2c1	YES
CCC1=C[C@@H]2CN(C1)Cc1c([nH]c3ccccc13)[C@@](C(=O)OC)(c1cc3c(cc1OC)N(C)[C@H]1[C@@](O)(C(=O)OC)[C@H](OC(C)=O)[C@]4(CC)C=CCN5CC[C@]31[C@@H]54)C2	YES
CO[C@H]1C[C@@H]2CC[C@@H](C)[C@@](O)(O2)C(=O)C(=O)N2CCCC[C@@H]2C(=O)O[C@H]([C@@H](C)C[C@@H]2CC[C@H](O)[C@H](OC)C2)CC(=O)[C@H](C)C=C(C)[C@@H](O)[C@@H](OC)C(=O)[C@H](C)C[C@H](C)C=CC=CC=C1C	NO

QUERY: Lab log entry: CN1CCC[C@@H]1CCO[C@](C)(c1ccccc1)c1ccc(Cl)cc1 — outcome as called in the assay?
RESULT: YES

QUERY: Lab log entry: COC1=CC(=O)C[C@@H](C)[C@]12Oc1c(Cl)c(OC)cc(OC)c1C2=O — outcome as called in the assay?
RESULT: NO

QUERY: Lab log entry: C[C@@H]1O[C@@H](O[C@H]2CC[C@@]3(C)[C@H](CC[C@@H]4[C@H]3C[C@@H](O)[C@]3(C)[C@@H](C5=CC(=O)OC5)CC[C@]43O)C2)C[C@H](O)[C@@H]1O[C@H]1C[C@H](O)[C@H](O[C@H]2C[C@H](O)[C@@H](O)[C@@H](C)O2)[C@H](C)O1 (stereo in doubt) — outcome as called in the assay?
RESULT: YES
